test: Stability of prazole starting materials in phosphate buffer media at pH 6.8 and 8.0; conditions: buffer, 0.5 h, 0.5 µg/mL, pH 8
// reported remaining amount after the degradation per item
Please state the figure in %; there is no need to write the unit.

compound	remaining amount after the degradation, %
COCCCOc1ccnc(C[S+]([O-])c2nc3ccccc3[nH]2)c1C (stereo not shown) [Rabeprazole sodium, rabeprazole sodium]	93.5
COc1ccnc(C[S+]([O-])c2nc3ccc(OC(F)F)cc3[nH]2)c1OC (stereo not shown) [Pantoprazole sodium, pantoprazole sodium]	95.9
Cc1c(OCC(F)(F)F)ccnc1C[S+]([O-])c1nc2ccccc2[nH]1 (stereo not shown) [Lansoprazole, lansoprazole]	96.2

What value of remaining amount after the degradation has been recorded for this entry: COc1ccnc(C[S+]([O-])c2nc3cc(-n4cccc4)ccc3[nH]2)c1C (stereo not shown) [Ilaprazole, ilaprazole]
91.5

---

assay: Stability of prazole starting materials in phosphate buffer media at pH 6.8 and 8.0; conditions: buffer, 0.25 h, 0.5 µg/mL, pH 6.8
// reported remaining amount after the degradation per item
Please state the figure in %; there is no need to write the unit.

These recorded examples may help you get a feel for the data.
compound	measure	u	recorded.measurement
COc1ccnc(C[S+]([O-])c2nc3ccc(OC(F)F)cc3[nH]2)c1OC (stereo not shown) [Pantoprazole sodium, pantoprazole sodium]	remaining amount after the degradation	%	83.6
COc1ccnc(C[S+]([O-])c2nc3cc(-n4cccc4)ccc3[nH]2)c1C (stereo not shown)	remaining amount after the degradation	%	59.7
Cc1c(OCC(F)(F)F)ccnc1C[S+]([O-])c1nc2ccccc2[nH]1 (stereo not shown)	remaining amount after the degradation	%	85.7

Okay, next one:
What value of remaining amount after the degradation has been recorded for this entry: COCCCOc1ccnc(C[S+]([O-])c2nc3ccccc3[nH]2)c1C (stereo not shown) [Rabeprazole sodium, rabeprazole sodium]
70.3

---

assay: Stability of prazole starting materials in phosphate buffer media at pH 6.8 and 8.0; conditions: buffer, 0 h, 0.5 µg/mL, pH 6.8
measure: remaining amount after the degradation (%)
Please state the figure in %; there is no need to write the unit.

These recorded examples may help you get a feel for the data.
compound	measure	recorded.measurement
COc1ccnc(C[S+]([O-])c2nc3cc(-n4cccc4)ccc3[nH]2)c1C (stereo not shown) [Ilaprazole, ilaprazole]	remaining amount after the degradation	100.0
COc1ccnc(C[S+]([O-])c2nc3ccc(OC(F)F)cc3[nH]2)c1OC (stereo not shown) [Pantoprazole sodium, pantoprazole sodium]	remaining amount after the degradation	100.0
COCCCOc1ccnc(C[S+]([O-])c2nc3ccccc3[nH]2)c1C (stereo not shown) [Rabeprazole sodium, rabeprazole sodium]	remaining amount after the degradation	100.0

What value of remaining amount after the degradation has been recorded for this entry: Cc1c(OCC(F)(F)F)ccnc1C[S+]([O-])c1nc2ccccc2[nH]1 (stereo not shown) [Lansoprazole, lansoprazole]
100.0

---

// reported remaining amount after the degradation per item
experiment: Stability of prazole starting materials in phosphate buffer media at pH 6.8 and 8.0; conditions: buffer, 0.5 h, 0.5 µg/mL, pH 6.8
Please state the figure in %; there is no need to write the unit.

These recorded examples may help you get a feel for the data.
compound	u	remaining amount after the degradation
COc1ccnc(C[S+]([O-])c2nc3cc(-n4cccc4)ccc3[nH]2)c1C (stereo not shown) [Ilaprazole, ilaprazole]	%	42.7
Cc1c(OCC(F)(F)F)ccnc1C[S+]([O-])c1nc2ccccc2[nH]1 (stereo not shown) [Lansoprazole, lansoprazole]	%	70.2
COc1ccnc(C[S+]([O-])c2nc3ccc(OC(F)F)cc3[nH]2)c1OC (stereo not shown) [Pantoprazole sodium, pantoprazole sodium]	%	65.9

What value of remaining amount after the degradation has been recorded for this entry: COCCCOc1ccnc(C[S+]([O-])c2nc3ccccc3[nH]2)c1C (stereo not shown) [Rabeprazole sodium, rabeprazole sodium]
51.5
